Data provenance is ChEMBL document CHEMBL3739262.

# STUDY_TARGET: Aldo-keto reductase family 1 member B10 (Homo sapiens, UniProt O60218)
# Sequence (O60218 whole entry, looked up): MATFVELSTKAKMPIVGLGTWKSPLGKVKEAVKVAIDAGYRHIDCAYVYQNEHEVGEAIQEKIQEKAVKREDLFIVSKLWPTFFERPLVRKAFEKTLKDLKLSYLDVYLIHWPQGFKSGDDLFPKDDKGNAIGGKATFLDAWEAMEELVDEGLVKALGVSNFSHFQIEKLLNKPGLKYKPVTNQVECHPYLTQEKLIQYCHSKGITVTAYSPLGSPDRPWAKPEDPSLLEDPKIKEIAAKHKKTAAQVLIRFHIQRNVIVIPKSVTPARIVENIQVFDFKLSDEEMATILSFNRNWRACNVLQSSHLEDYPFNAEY
# ASSAY_PROTOCOL: Inhibition of recombinant human AKR1B10 expressed in human HCT116 cells assessed as reduction in daunorubicinol production using daunorubicin as substrate at 20 uM incubated for 4 to 8 hrs by UHPLC based transient transfection assay
# Assay type: cell-based
# EXPERIMENTAL_CONDITIONS: HCT-116

| COMPOUND | inhibition |
| --- | --- |
| O=c1cc(-c2ccc(O)cc2)oc2cc(O)cc(O)c12 | 34% |
| O=c1cc(-c2ccc(O)c(O)c2)oc2cc(O)cc(O)c12 | 33% |
| O=c1c(O)c(-c2ccc(O)c(O)c2)oc2cc(O)cc(O)c12 | 23% |
| O=c1cc(-c2ccccc2)oc2cc(O)ccc12 [7-HYDROXYFLAVONE] | 19% |
